Answer each item with its documented solubility at 24 h.
- assay-overview: physchem
- test-settings: 50 mmol/L glycine buffer, pH 2, aqueous buffer, thermodynamic from solid
Write the answer as a number in µg/mL, unit excluded.

Exercise: Sample O=C1C(=O)C(c2ccccc2)=C2OCOC2=C1c1ccccc1 [4,7-diphenyl-1,3-benzodioxol-5,6-dione, reference compound] — what was its solubility at 24 h?
Solution: 0.3

Exercise: Repeat for the following compound: CC(=O)c1cc2c(o1)C(=O)c1sccc1C2=O [reference compound]
Solution: 4

Exercise: Try this compound next: CC1=CC(=O)c2ccccc2C1=O [2-methylnaphthalen-1,4-dione, reference compound]
Solution: 97

----------
- assay-overview: Solution stability test (residual ratio and generation of active form in buffers of pH 2.0 to 9.0)
- Type: physicochemical
- test-settings: pH5.0 buffer, 25° C., 25 umol/L, 6 hr
Where a name gives a salt, the structure may show the parent alone.
Provide the recorded Residual ratio for the entries that follow.
# number only, unit % dropped from output

Exercise: Return reported Residual ratio; argument: C[C@H]1COc2c1c(OC(=O)NCCCNCC(=O)O)c(OC(=O)NCCCNCC(=O)O)c1c3c(ccc21)C(C)(C)CCC3 [Example 13, dihydrochloride]
Solution: 99.2

Exercise: // repeat for CC(=O)c1cc2c(OC(=O)NCCNCC(=O)O)c3ccsc3c(OC(=O)NCCNCC(=O)O)c2o1 [Example 1, dihydrochloride] and report
Solution: 3.9

Exercise: Then what about the compound NCCCNC(=O)Oc1c(OC(=O)NCCCN)c(-c2ccccc2)c2c(c1-c1ccccc1)OCO2 [Example 6] ?
Solution: 99.8

Exercise: Field entry: CC(=O)c1cc2c(O)c3c(O)cccc3c(OC(=O)NCCCN)c2o1 [Reference Example 9, hydrochloride]
Solution: 99.7

Exercise: // query: C[C@H]1COc2c1c(OC(=O)NCCNCC(=O)O)c(OC(=O)NCCNCC(=O)O)c1c3c(ccc21)C(C)(C)CCC3 [Example 12, dihydrochloride]
Solution: 98.1

Exercise: Also need Cc1cc(OC(=O)NCCNCC(=O)O)c2ccccc2c1OC(=O)NCCNCC(=O)O [Example 2, dihydrochloride] , thanks.
Solution: 102

Exercise: Quick one: CN1CC[C@H](c2c(OC(=O)N(C)CCN)cc(O)c3c(=O)cc(-c4ccccc4Cl)oc23)[C@H](O)C1 [Example 8]
Solution: 96.1
